Attribute: pIC50
Tested on: Aβ40 in conditioned medium of cells expressing amyloid precursor protein
experimental protocol: In vitro BACE cell-based assay (HEK cell assay, Aβ40 sandwich ELISA)
condition details: Homo sapiens, HEK293; average IC50; Aβ40 after 24 h incubation
Reminder that pIC50 means the negative base-10 logarithm of the concentration expressed in mol/L.

Check out these entries, answers already filled in.
{"columns": ["molecule", "experimental value"],
 "data": [
  ["NC1=NC2(c3ccccc3O1)c1cc(-c3cccnc3F)ccc1Oc1cnc(C3=CCCOC3)cc12 (racemic) [Example 18]", 6.91],
  ["NC1=NC2(c3cc(-c4cccnc4F)ccc3Oc3cnc(-c4ccnc(F)c4)cc32)c2cccnc2O1 (racemic) [Example 24]", 6.49]
]}

// moving on: another record for pIC50
Input NC1=NC2(c3cc(-c4cccnc4F)ccc3Oc3c2cc(N2CCOCC2)nc3F)c2ccccc21 (racemic) [Example 8] . Output pIC50: 7.85
